# Tested on: Hs-578T
# METHOD_NOTES: NCI tumour cell line growth inhibition, 48 h
Activity calls are given as the source filed them. Rule as the data show it: active = GI50 up to about 1.1 µM and inactive = higher.
EXPERIMENTAL_ENDPOINT: GI50

C/C(CC(O)(C(F)(F)F)C(F)(F)F)=N\O = > 10 µM (inactive)
C=C(C)C(CC=C(C)C)CC12CC(CC=C(C)C)C(C)(C)C(CC=C(C)C)(C(=O)C(Cc3ccc(O)c(O)c3)=C1O)C2=O (stereo not drawn) = > 100 µM (inactive)

Consider now this further molecule.
Problem: Using the record for `CC[C@@]1(OP(=O)(O)O)C(=O)OCc2c1cc1n(c2=O)Cc2cc3ccccc3nc2-1` , report its GI50.
Result: > 10 µM (inactive)

###

# Test system: 786-0
# METHOD_NOTES: NCI tumour cell line growth inhibition, 48 h
Active and inactive are the calls of the source. Rule as the data show it: active = GI50 up to about 1.1 µM and inactive = higher.
Would you mind answering with one of these outcomes? active, inactive

Some entries whose results are on file:
COc1cc(/C=C2\C(=O)N(c3ccccc3Cl)C(c3ccccc3)S2(=O)=O)cc(OC)c1OC (centres undefined) = inactive
Nc1nc(N)c(-c2cccc(C(F)(F)F)c2)c(Cc2cccc(C(F)(F)F)c2)n1 = active
O=C(N/N=C(COc1cccc(Cl)c1)\N=C\c1cccnc1)c1ccncc1 = inactive

Problem: // return assay outcome for CCOC1OC(C)(C=C(C#N)C#N)CCC1C (centres undefined)
Result: inactive

Problem: Follow-up item: COC12c3ccccc3-c3ccccc3C1[C@@H](C(=O)O)[C@H]2C(=O)O (some centres undefined)
Result: inactive

Problem: Follow-up item: CCC(NC(C)c1ccccc1)C(O)c1ccc(OCc2ccccc2)c(OCc2ccccc2)c1 (centres undefined)
Result: inactive

Problem: Follow-up item: OCCCCCCCCCCCOc1ccc(C2OCC3(CC=CCC3)CO2)cc1 (centres undefined)
Result: inactive

Problem: Follow-up item: `COc1ccc(Cc2c3cc(OC)c(OC)cc3cc[n+]2C)cc1`
Result: inactive

Problem: Follow-up item: CC1(C(=O)O)CCCC1C(=O)O (centres undefined)
Result: inactive

Problem: Follow-up item: `Cc1nc2c(O)cccc2c(=O)[nH]1`
Result: inactive

Problem: Follow-up item: COc1ccc(CC(O)CN2CCOCC2)cc1 (centres undefined)
Result: inactive

Problem: Follow-up item: CC1(C)OC2OC(COC(=O)C=[N+]=[N-])C3OC(C)(C)OC3C2O1 (centres undefined)
Result: inactive

Problem: Follow-up item: `COc1cc2c(cc1OC)-c1[nH]c3ccc(C#N)cc3c1CC(=O)N2`
Result: inactive

Problem: Follow-up item: COc1cc(O)c(C(=O)/C=C/c2ccccc2)c(OC)c1 [FLAVOKAWAIN B]
Result: inactive

###

# Tested on: UACC-62
# METHOD_NOTES: NCI tumour cell line growth inhibition, 48 h
The source made the active and inactive calls. No stated cut-off is given here; in the data, active = GI50 up to about 1.1 µM and inactive = higher.
Would you mind answering with one of these outcomes? YES for active, NO for inactive

CC(/C=C/c1ccccc1)=N\NC(=S)N/N=C(C)/C=C/c1ccccc1 = NO

Problem: // return assay outcome for CCC1(OC(=O)CN2CCN(CCO)CC2)C(=O)OCc2c1cc1n(c2=O)Cc2cc3ccccc3nc2-1 (configuration not stated)
Result: YES

Problem: Follow-up item: `COc1ccc(Nc2nc3c([nH]2)c(=O)n(C)c(=O)n3C)cc1`
Result: NO

Problem: Follow-up item: COc1cc(/C=C2\C(=O)N(c3ccccc3Cl)C(c3ccccc3)S2(=O)=O)cc(OC)c1OC (configuration not stated)
Result: NO

Problem: Follow-up item: `Cc1ccccc1/N=N/c1c(O)c(S(=O)(=O)O)cc2cc(S(=O)(=O)O)ccc12`
Result: NO

Problem: Follow-up item: NC(=S)N/N=C1\C(=O)N(CCc2ccccc2)C(=O)C1C(=O)NCCc1ccccc1 (configuration not stated)
Result: NO

Problem: Follow-up item: Cn1c2c(c3ccccc31)CCN=C2C1CCCOC1=O (configuration not stated)
Result: NO

Problem: Follow-up item: `O=[N+]([O-])c1ccc(COc2cccc3cccnc23)cc1`
Result: NO

Problem: Follow-up item: `O=C(O)c1ccc(C(=O)c2ccccc2)c(C(=O)O)c1`
Result: NO

Problem: Follow-up item: C=Cc1ccccc1C1C(C(=O)OCC)=C(C)N=C2OC(C(=O)OC)C(=O)N21 (configuration not stated)
Result: NO

Problem: Follow-up item: Cc1ccc(-c2c3nc(c(-c4ccc(C)cc4)c4ccc([nH]4)c(-c4ccc(OCC5COC(C)(C)O5)cc4)c4nc(c(-c5ccc(C)cc5)c5ccc2[nH]5)C=C4)C=C3)cc1 (configuration not stated)
Result: NO

Problem: Follow-up item: `CC1=C(C(=O)Nc2ccccc2)C(c2ccc(C(C)C)cc2)C(C(=O)Nc2ccccc2)=C(C)N1`
Result: NO
